Test system: Rattus norvegicus
procedure-summary: Estrogenicity in Sprague-Dawley rat assessed as uterus weight measured per gram of body weight at 25 mg/kg, po for 7 days in presence of 17-beta estradiol (reference value: 0.01 +/- 0.02 mg)
Assay type: ADME, organism-based
Set-up: dose 25 mg/kg, route oral
experimental-setup: in vivo, 168 h
measured-endpoint: Activity (µg)

Observe how each entry below is paired with its result.
CC(O)(c1cccc(Cl)c1)C(c1ccc(O)cc1)c1ccccn1 (stereo unspecified) :: 0.92
C/C(=C(\c1ccccc1)c1ccccn1)c1cccc(Cl)c1 :: 0.92
C/C(=C(/c1ccccc1)c1ccccn1)c1cccc(Cl)c1 :: 0.22

P = C/C(=C(/c1ccc(O)cc1)c1ccccn1)c1cccc(Cl)c1
Q = C/C(=C(\c1ccc(O)cc1)c1ccccn1)c1cccc(Cl)c1
Which value of Activity is smaller, the one for P or the one for Q ? Pick one and reply with its label.
Q
